Molecular target: T1, EsCas13d, nuclease-dead (Eubacterium siraeum, UniProt B0MS50, R295A;H300A;R849A;H854A)
T1 sequence: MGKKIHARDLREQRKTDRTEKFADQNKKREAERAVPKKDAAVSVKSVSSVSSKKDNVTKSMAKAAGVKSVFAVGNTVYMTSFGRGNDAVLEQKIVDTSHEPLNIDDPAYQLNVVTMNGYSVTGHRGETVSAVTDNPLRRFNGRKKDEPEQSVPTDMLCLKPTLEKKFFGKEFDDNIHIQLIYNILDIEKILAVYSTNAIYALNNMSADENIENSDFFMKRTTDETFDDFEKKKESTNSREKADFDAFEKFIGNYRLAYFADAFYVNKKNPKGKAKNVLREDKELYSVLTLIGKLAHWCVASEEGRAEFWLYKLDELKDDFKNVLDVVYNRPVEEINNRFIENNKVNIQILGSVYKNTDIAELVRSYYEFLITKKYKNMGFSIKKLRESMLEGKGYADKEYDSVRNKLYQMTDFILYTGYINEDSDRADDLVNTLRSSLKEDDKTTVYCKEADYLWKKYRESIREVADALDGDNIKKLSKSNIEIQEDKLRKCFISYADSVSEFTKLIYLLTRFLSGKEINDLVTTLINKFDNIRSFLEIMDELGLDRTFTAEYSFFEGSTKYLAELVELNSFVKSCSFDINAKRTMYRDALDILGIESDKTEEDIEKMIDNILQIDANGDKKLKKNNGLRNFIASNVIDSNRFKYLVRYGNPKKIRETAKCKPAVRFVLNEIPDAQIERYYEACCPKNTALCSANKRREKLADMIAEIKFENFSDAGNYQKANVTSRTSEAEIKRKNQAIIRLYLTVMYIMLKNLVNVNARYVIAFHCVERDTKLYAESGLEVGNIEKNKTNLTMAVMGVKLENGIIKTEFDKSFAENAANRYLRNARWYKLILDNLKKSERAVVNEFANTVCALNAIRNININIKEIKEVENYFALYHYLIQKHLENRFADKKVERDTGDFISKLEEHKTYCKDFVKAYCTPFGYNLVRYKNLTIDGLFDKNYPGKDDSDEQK
Assay: crRNA (strand 1, pre-loaded); Mg2+; 40 mM Tris-HCl pH 7.5, 150 mM NaCl, 6 mM MgCl2, 1 mM DTT, 0.1% Tween-20, 0.2 mg/ml BSA; 25 C; 10 min per concentration, then washed
Conditions: tags: His6-TwinStrep-SUMO cleaved; N-terminal SNAP kept (SNAP-Surface 488); label: 3' end held by stalled T7 RNA polymerase
pKd: −log10 of the molar value.
Metric: pKd

target 1 G13U,A20C (mixed) RNA 1: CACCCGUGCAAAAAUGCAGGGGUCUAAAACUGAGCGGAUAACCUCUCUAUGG RNA 2: GGGAAUGGAUCCACAUCUACGAAUUCGUACCCUAGAGAUGUUAUCCGCUCACCGAGAUCGGAAGAGCACACGU : ~7.05
target 1 MT 5'PFS AGA 3'PFS CAC (mixed) RNA 1: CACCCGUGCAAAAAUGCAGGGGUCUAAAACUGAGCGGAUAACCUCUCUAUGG RNA 2: GGGAAUGGAUCCACAUCUACGAAUUCAGACCAUAGAGAGGUUAUCCGCUCACACAGAUCGGAAGAGCACACGU : ~6.96

API: the following record is the query input.
input: For target 1 A9U,A20C (mixed) RNA 1: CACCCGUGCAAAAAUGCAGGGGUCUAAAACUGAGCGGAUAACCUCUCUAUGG RNA 2: GGGAAUGGAUCCACAUCUACGAAUUCGUACCCUAGAGAGGUUUUCCGCUCACCGAGAUCGGAAGAGCACACGU , what is its reported pKd?
output: ~7.28
